Source listed as the supplement of paper PMC5579334.

Please respond with reported drug sensitivity score for every item in the list.
system: HSC1 (primary human Schwann cells); assay: drug sensitivity score (DSS, CellTox-Green cytotoxicity, 72 h) (DSS (dimensionless)); higher = more cytotoxic; extreme values may be limits of the assay
Give bare numbers.

1. O=C(O)C1(C(=O)O)CCC1.[NH2-].[NH2-].[Pt+2] [Carboplatin aq] (max concentration tested 100000 nM) = 6.3
2. C[C@]12CC[C@@H]3c4ccc(O)cc4C[C@@H](CCCCCCCCC[S+]([O-])CCCC(F)(F)C(F)(F)F)[C@H]3[C@@H]1CC[C@@H]2O (stereo partly drawn) [Fulvestrant] (max concentration tested 1000 nM) = 0

Attention now shifts to the item below.
Req: Need drug sensitivity score, item CC(=O)[C@]1(O)Cc2c(O)c3c(c(O)c2[C@@H](O[C@H]2C[C@H](N)[C@H](O)[C@H](C)O2)C1)C(=O)c1ccccc1C3=O [Idarubicin] (max concentration tested 1000 nM)
Resp: 8.63
